- System: U266
- Assay procedure: 7 day pretreatment + 4-day co-treatment combination model (Cell Titer Glo)
- Details: read-out: 4-day IC50; single agent; U266 t(11; 14)
Assay endpoint: IC50 (nM)

CC(C)C[C@H](NC(=O)CNC(=O)c1cc(Cl)ccc1Cl)B(O)O | 1.5

---

- System: L-363
Assay endpoint: IC50 (nM)

C[C@@H]1C[C@H]2[C@@H]3CCC4=CC(=O)C=C[C@]4(C)[C@@]3(F)[C@@H](O)C[C@]2(C)[C@@]1(O)C(=O)CO | 3.5

---

- Tested on: MM1.S
- Assay procedure: 7-day co-treatment combination model (Cell Titer Glo)
- Details: Homo sapiens, 168 h, read-out: 7-day IC50
pIC50: −log10 of the molar value.
Assay endpoint: pIC50

Cc1[nH]c2ccccc2c1CCNCc1ccc(/C=C/C(=O)NO)cc1 [Panobinostat, panobinostat] | 8.87
Nc1cccc2c1C(=O)N(C1CCC(=O)NC1=O)C2=O (stereo not shown) [Pomalidomide, pomalidomide] | 7.45
C[C@@H]1C[C@H]2[C@@H]3CCC4=CC(=O)C=C[C@]4(C)[C@@]3(F)[C@@H](O)C[C@]2(C)[C@@]1(O)C(=O)CO [Dexamethasone, dexamethasone] | 8.15
CC(C)C[C@H](NC(=O)[C@H](Cc1ccccc1)NC(=O)c1cnccn1)B(O)O [Bortezomib, bortezomib] | 8.72

---

- Test system: L-363
- Assay procedure: 7 day pretreatment + 4-day co-treatment combination model (Cell Titer Glo)
- Details: second agent + tazemetostat; 7 day pretreatment + 4-day co-treatment; L-363 t(20;22)
Assay endpoint: combinatorial effect by Loewe volumes

C[C@@H]1C[C@H]2[C@@H]3CCC4=CC(=O)C=C[C@]4(C)[C@@]3(F)[C@@H](O)C[C@]2(C)[C@@]1(O)C(=O)CO | A (Additive)
O=C(CCCCCCC(=O)Nc1ccccc1)NO | A (Additive)
Nc1cccc2c1C(=O)N(C1CCC(=O)NC1=O)C2=O (centres unmarked) [Pomalidomide, pomalidomide] | S (Synergy)
Cc1[nH]c2ccccc2c1CCNCc1ccc(/C=C/C(=O)NO)cc1 | S (Synergy)
C[C@]12C=CC(=O)C=C1CC[C@@H]1[C@@H]2[C@@H](O)C[C@@]2(C)[C@H]1CC[C@]2(O)C(=O)CO | A (Additive)

---

- Tested on: Granta-519
- Assay procedure: mantle cell lymphoma 7 day co-treatment model
- Assay type: cell-based
- Details: Homo sapiens, 168 h, second agent alone, 7 day co-treatment model
Assay endpoint: IC50 (nM)

CC1(C)CCC(CN2CCN(c3ccc(C(=O)NS(=O)(=O)c4ccc(NCC5CCOCC5)c([N+](=O)[O-])c4)c(Oc4cnc5[nH]ccc5c4)c3)CC2)=C(c2ccc(Cl)cc2)C1 | 41
C=CC(=O)N1CCC[C@@H](n2nc(-c3ccc(Oc4ccccc4)cc3)c3c(N)ncnc32)C1 | 856

---

- Test system: L-363
- Assay procedure: 7 day pretreatment + 4-day co-treatment combination model (Cell Titer Glo)
- Details: second agent + tazemetostat; 7 day pretreatment + 4-day co-treatment; L-363 t(20;22)
Assay endpoint: combinatorial effect by Loewe volumes

CC(C)C[C@H](NC(=O)[C@H](CCc1ccccc1)NC(=O)CN1CCOCC1)C(=O)N[C@@H](Cc1ccccc1)C(=O)N[C@@H](CC(C)C)C(=O)[C@@]1(C)CO1 | A (Additive)
COc1cccc2c1C(=O)c1c(O)c3c(c(O)c1C2=O)C[C@@](O)(C(=O)CO)C[C@@H]3O[C@H]1C[C@H](N)[C@H](O)[C@H](C)O1 | A (Additive)

The reported measurements were obtained from patent US20240293418A1.
